# assay.protocol: chemical genetic growth profiling, strain panel (AID 1159580);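 also: tested at 20 µM; growth read once vehicle control cultures reached saturation at 30 °C; 1 = growth at the plate median or of vehicle wells; lower values mean less growth of the strain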
# condition.summary: S. cerevisiae deletion strains, growth OD, locus YNL233W, strain BNI4, stronger effect = lower value
Hit rate of the full screen: of about 5,500 compounds, about 2,000 (36%) were called active. Inconclusive results (about 18%) are left out. The list shows a part of the results. Where a SMILES comes first, the peptide text is derived from it.
Assignment: determine reported normalized growth for the given compounds.
Reply briefly: the number, and no unit.

Query string: Name the reported normalized growth value associated with the compound Cc1onc(-c2ccccc2)c1-c1ccc(S(N)(=O)=O)cc1
Result string: 1.01

Query string: Likewise for C[C@@H]1CC[C@H]2C(C)(C)C3CC12CC[C@@]3(C)O (some centres undefined) ?
Result string: 0.83

Query string: And what about the compound CC(=O)N[C@@H](CC(=O)O)C(=O)N[C@@H](CCC(=O)O)C(=O)O (Ac-Asp-Glu-OH) ?
Result string: 1.02

Query string: Likewise for Cc1cc(CC(=O)O)n(C)c1C(=O)c1ccc(Cl)cc1 ?
Result string: 0.993

Query string: Follow-up item: COc1ccc2c(c1)OCC(Cc1ccc(OC)c(OC)c1)C2=O (centres undefined)
Result string: 0.919

Query string: Try O=C1CCCCC/C=C/CCCCCCCCO1 next.
Result string: 0.943

Query string: Same question, c1ccc2c(CC3=NCCN3)cccc2c1 this time
Result string: 1.01

Query string: Now the same for CC1OC(O[C@H]2/C=C/C=C/C=C/C=C/C=C/C=C/C=C/[C@H](C)[C@@H](O)[C@@H](C)[C@H](C)OC(=O)CC(O)CC(O)CCC(O)C(O)CC(O)C[C@]3(O)C[C@H](O)C(C(=O)O)C(C2)O3)C(O)[C@H](N)C1O (some centres undefined)
Result string: 0.982

Query string: Can you check CCC(=O)OC1[C@@H]2CC3=C4CC(=O)O[C@@H](c5ccoc5)[C@]4(C)CCC3[C@@](C)(C2=O)[C@@H](CC(=O)OC)C1(C)C (some centres undefined) next?
Result string: 0.954

Query string: Consider next the compound CN(C)C(=O)Oc1ccc[n+](C)c1 in the same way.
Result string: 1

Query string: Next compound: O=C(O)CCC1NCC2CC1CN1CCCCC21 (centres undefined)
Result string: 1.01

Query string: Then this compound: CC(=O)Oc1ccc2c(c1)CCC1C2CC[C@]2(C)C(=O)CCC12 (some centres undefined)
Result string: 0.949

Query string: Also check NC(N)=NCCCCN=C(N)N
Result string: 0.979

Query string: What about COc1ccc2oc(-c3ccccc3)c(OC)c(=O)c2c1 ?
Result string: 0.78

Query string: Same lookup for NCCCCNCCCN , please.
Result string: 0.98

Query string: Try CC(C)=CC1C(C(=O)OCc2cccc(Oc3ccccc3)c2)C1(C)C (centres undefined) next.
Result string: 1.05

Query string: Now the compound OC[C@H]1O[C@@H](n2cnc3c(NCc4ccco4)ncnc32)[C@H](O)[C@@H]1O
Result string: 1.05

Query string: Here is the next compound: O=c1cccc2n1CC1CC2CN2CCCC[C@@H]12 (some centres undefined)
Result string: 1

Query string: Another compound to look at: Oc1c(Cl)cc(Cl)c(Cl)c1Cc1c(O)c(Cl)cc(Cl)c1Cl
Result string: 0.0507

Query string: Next record, please: CNc1ccc(C(=O)CC(O)CCC(C)C2OC(=O)CC(O)CC(=O)CC(O)CC(O)CC(O)CC(O)CC3(O)CC(O)C(C(=O)OC)C(CC(OC4OC(C)C(O)C(N)C4O)/C=C/C=C/C=C/C=C/C=C/C=C/C=C/C2C)O3)cc1 (centres undefined)
Result string: 0.0536

Query string: # iterate: NCCCNCCSP(=O)(O)O
Result string: 0.997

Query string: Check COC1=CC(=O)OC(CCc2ccc(OC)c(OC)c2)C1 (centres undefined) too.
Result string: 1

Query string: Now the same for COC(=O)[C@@H]1OC(=O)C2OC23[C@@]1(C)CCC1[C@]2(C)C(C[C@@H](O)[C@]13C)C(C)(C)[C@H](OC(C)=O)C[C@@H]2OC(C)=O (some centres undefined)
Result string: 1.01

Query string: Now give it for C[C@]12CCC3c4ccc(OC(=O)CCC(=O)O)cc4CCC3C1CCC2=O (some centres undefined) too.
Result string: 0.989

Query string: Next compound: CC(=O)C1CC[C@H]2C3CC[C@H]4C[C@H](O)CC[C@]4(C)C3CC[C@]12C (some centres undefined)
Result string: 0.992

Query string: Entry Cc1ccc(C(=O)c2ccc(CC(=O)O)n2C)cc1 please
Result string: 1

Query string: Now the compound CN[C@@H]1C(OC2[C@H](O[C@H]3[C@H](O)[C@@H](O)[C@H](N=C(N)N)[C@@H](O)[C@@H]3N=C(N)N)OC(C)[C@]2(O)CO)OC(CO)C(O)C1O (some centres undefined)
Result string: 0.976

Query string: Another compound to look at: COc1ccc2c(c1)OCC(Cc1ccc(OC)c(OC(C)=O)c1)C2=O (centres undefined)
Result string: 0.991

Query string: Same again, this time with CC(C)c1nc(N(C)S(C)(=O)=O)nc(-c2ccc(F)cc2)c1/C=C/[C@@H](O)C[C@@H](O)CC(=O)O
Result string: 0.988

Query string: Entry NC(=O)NC1NC(=O)NC1=O (centres undefined) please
Result string: 0.978

Query string: Another compound: CC(=O)N[C@@H](CCC(=O)O)C(=O)O
Result string: 1.01

Query string: Also NCC[C@@H](O)C(=O)N[C@@H]1C[C@H](N)[C@@H](O[C@H]2O[C@H](CN)[C@@H](O)[C@H](O)[C@H]2O)[C@H](O)[C@H]1O[C@H]1O[C@H](CO)[C@@H](O)[C@H](N)C1O (some centres undefined) ?
Result string: 1.02

Query string: And O=NN(CCCl)C(=O)NCCCl ?
Result string: 0.959

Query string: What about Fc1ccc([C@@H]2CCNC[C@H]2COc2ccc3c(c2)OCO3)cc1 ?
Result string: 1

Query string: Do the same for CN1CCC[C@@H]1CCO[C@](C)(c1ccccc1)c1ccc(Cl)cc1 please
Result string: 0.978

Query string: Try this compound next: CC1[C@H](C)OC(=O)CC(O)CC(O)CC(O)CCC(O)C(O)C[C@]2(O)CC(O)C(C(=O)O)C(CC(OC3O[C@H](C)[C@@H](O)[C@H](N)[C@@H]3O)/C=C/C=C/C=C/C=C/CC/C=C/C=C/[C@H](C)[C@H]1O)O2 (some centres undefined)
Result string: 0.135

Query string: Field entry: C[C@]12CCC3C(CC[C@H]4C[C@H](O)CC[C@]34C)C1CC[C@@H]2O (some centres undefined)
Result string: 0.904

Query string: Another: NC1(C(=O)O)CCCC1
Result string: 0.991

Query string: Same question for CC(=O)C1CCC2C3CCC4C[C@H](O)CCC4(C)C3C[C@H](O)C12C (some centres undefined) please.
Result string: 1.07

====

# assay.protocol: chemical genetic growth profiling, strain panel (AID 1159580);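 also: tested at 20 µM; growth read once vehicle control cultures reached saturation at 30 °C; 1 = growth at the plate median or of vehicle wells; lower values mean less growth of the strain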
# condition.summary: S. cerevisiae deletion strains, growth OD, locus YNL071W, strain lat1, stronger effect = lower value
In all, about 5,500 compounds went through this assay and about 2,000 (36%) were called active. About 18% were inconclusive and are not listed. The list shows a part of the results.
Just a reminder that ties go to 0 (no): only normalized growth strictly below 1 counts as 1 (yes).

Query string: normalized growth under 1? Item: NC1(C(=O)O)CC1
Result string: 0 (no)

Query string: Can you check Clc1ccc(C(c2ccccc2Cl)C(Cl)Cl)cc1 (stereo not given) next?
Result string: 1 (yes)

Query string: COc1c(C)c2c(c(O)c1C/C=C(\C)CCC(=O)O)C(=O)OC2 , same question.
Result string: 1 (yes)

Query string: Try this molecule next: CC(=O)O[C@H]1C[C@@]2(C)[C@@H](C[C@@H](O)C3[C@]2(C)CC[C@H]2[C@H](C)[C@H](O)CC[C@]32C)/C1=C(/CCC=C(C)C)C(=O)O (stereo not given in full)
Result string: 0 (no)

====

# assay.protocol: chemical genetic growth profiling, strain panel (AID 1159580);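 also: tested at 20 µM; growth read once vehicle control cultures reached saturation at 30 °C; 1 = growth at the plate median or of vehicle wells; lower values mean less growth of the strain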
# condition.summary: S. cerevisiae deletion strains, growth OD, locus YNL067W, strain RPL9B, stronger effect = lower value
The campaign covered roughly 5,500 compounds. About 2,000 (36%) were called active. Roughly 18% stayed inconclusive and do not appear here. The list shows a part of the results.
// boundary case: normalized growth equal to 0.06 maps to 0.0; strictly smaller maps to 1.0

Query string: Is normalized growth strictly under 0.06 for the entry O=C(O)COc1ccc(Cl)cc1Cl ?
Result string: 0.0

Query string: And the next one, CC(C)=CC1C(C(=O)OCc2cccc(Oc3ccccc3)c2)C1(C)C (stereo not given) ?
Result string: 0.0

Query string: Repeat for the following compound: Clc1ccc(COC(Cn2ccnc2)c2ccc(Cl)cc2Cl)c(Cl)c1 (stereo not given)
Result string: 1.0

Query string: Record: Clc1ccc(COC(Cn2ccnc2)c2ccc(Cl)cc2Cl)cc1 (stereo not given)
Result string: 1.0

Query string: Record: CNc1ccc(C(=O)CC(O)CCC(C)C2OC(=O)CC(O)CC(=O)CC(O)CC(O)CC(O)CC(O)CC3(O)CC(O)C(C(=O)OC)C(CC(OC4OC(C)C(O)C(N)C4O)/C=C/C=C/C=C/C=C/C=C/C=C/C=C/C2C)O3)cc1 (stereo not given)
Result string: 1.0

Origin of the recorded values: PubChem BioAssay AID1159580
